Reference source: ChEMBL document CHEMBL3507680

Hi there, I'd appreciate the recorded cytotoxicity at 70.5 h for every entry that follows.
test: Human HepG2 cell viability assay in 384 well format; assay type: toxicity, cell-based; design: dose 125 nL, time 70.5 hour; concentration not given beside the values; details: HepG2 cells, read-out: Inhibition
Answers are plain numbers, in %.

> print(dat)
                                   compound  value.unit  test.value
1  CN1CC2(CCCN(c3nc(N)nc4c3CCCC4)C2)OC1=O (stereo unspecified)           %       -10.1
2         CCc1sc(-c2nnc(CNCCn3cccn3)o2)cc1C           %      -0.343
3     CC(=O)N(CCC(=O)NC1(C#N)CCC1)Cc1ccccc1           %        21.1

Dear colleague, could you please provide cytotoxicity at 70.5 h for the compounds listed below?
1. CNC(=O)CN1CCCC12CCN(C(=O)c1ccccc1F)CC2
2. CC(=O)Nc1ncc(S(=O)(=O)N2CCC(C)CC2)s1
3. Cc1csc(CNC(=O)N2CCN(Cc3ccco3)CC2)n1

1: -10.4; 2: -8.58; 3: -5.98

---

Hi there, I'd appreciate the recorded cytotoxicity at 70.5 h for every entry that follows.
experiment: Human HepG2 cell viability assay in 384 well format; assay type: toxicity, cell-based; set-up: dose 125 nL, time 70.5 hour; concentration not given beside the values; details: HepG2 cells, read-out: Inhibition
One number for each entry, in %.

Reference set, count: 5
> print(dat)
                                   compound              observable  test.value
1  CNC(=O)c1ccc(CN(C)C(=O)Nc2nnc(C(C)C)s2)cc1  cytotoxicity at 70.5 h        2.68
2  NC(c1ccc(F)cc1)c1cccs1 (stereo unspecified)  cytotoxicity at 70.5 h        6.42
3  CN(Cc1ccco1)C1CCC12CCN(C(=O)N1CCCC1)CC2 (stereo unspecified)  cytotoxicity at 70.5 h       -7.66
4  CC(C)C(C(N)=O)c1cccc(Cl)c1 (stereo unspecified)  cytotoxicity at 70.5 h       -3.86
5    CCS(=O)(=O)CC(=O)Nc1ccc2oc(C3CC3)nc2c1  cytotoxicity at 70.5 h      -0.903

As a next step, examine the compound that follows.
// lookup cytotoxicity at 70.5 h for Cc1cc(C)n(CC(=O)N2CCCCC2CCN2CCCC2=O)c(=O)n1 (stereo unspecified)
-12.3

---

test: Human HepG2 cell viability assay in 384 well format; type: toxicity, cell-based; parameters: dose 125 nL, time 70.5 hour; concentration not given beside the values; details: HepG2 cells, read-out: Inhibition
Hi there, I'd appreciate the recorded cytotoxicity at 70.5 h for every entry that follows.

> print(dat)
                                   molecule  test.value
1  CN(CCN1CCCC1)c1nccc(N2CCN[C@H]3CS(=O)(=O)C[C@H]32)n1       22.4%
2  Cc1ocnc1C(=O)N(C)[C@@H]1CC[C@@H](Oc2ccccc2)[C@@H]1O      -5.13%
3    CC(=O)N1CCN(C(=O)CCCc2nc(C(C)C)no2)CC1       11.7%
4  CCn1ncc2c1CN(C(=O)c1ccc3c(c1)OCO3)CC2COC (centres undefined)      -1.24%
5  CS(=O)(=O)N1CCC2(CC1)CC(CC(=O)N1CCCC1)c1ccccc12 (centres undefined)      -10.4%

Dear colleague, could you please provide cytotoxicity at 70.5 h for the molecules listed below?
1. COc1cccc2c1OCC(Cc1cc(C(=O)N3CCCC3)ccn1)C2 (centres undefined)
2. O=C(NCc1nnc2n1CCC2)c1cccc(Br)c1
3. Cc1ccc2nc(-c3nc4c([nH]3)CC(C)(C)CNC4=O)cn2c1
4. Cn1cc(-c2cnc(N3CCOCC3)nc2)cc1C(=O)NCCC#N
5. COc1ccc(-c2nnc(C(C)N3CCOC(C)(C)C3)o2)cc1 (centres undefined)
6. Cc1ccc(C(=O)N2CCN(CCC(C)(C)C)CC2)c(=O)[nH]1
7. Cc1nc(NC2CCN(S(=O)(=O)c3ccccc3)CC2)[nH]c(=O)c1C
8. Cc1cnn(C2CCCN(C(=O)CCc3c(C)noc3C)C2)c1 (centres undefined)

1. -16.5%
2. -9.88%
3. 7.51%
4. -9.71%
5. -5.79%
6. -6.54%
7. -9.46%
8. -2.08%

Dear colleague, could you please provide cytotoxicity at 70.5 h for the molecules listed below?
1. CC(=O)N1CC[C@H]2OCC[C@@H](C(=O)Nc3cccnc3C)[C@H]2C1
2. CCc1nnc(C(C)N(C)Cc2c(C)nn(-c3ccccc3)c2C)o1 (centres undefined)
3. Cc1nn(-c2ncnc3[nH]cnc23)c2c1C(C(C)C)CC(=O)N2 (centres undefined)
4. CN(Cc1cscn1)C1CCCN(c2cccnn2)C1 (centres undefined)
5. Cc1nn(C)c(C)c1C1CCCN1CC(=O)Nc1ccncc1 (centres undefined)
6. Cn1cc(-c2cc(C(F)F)n3nc(CCC(=O)O)nc3n2)cn1

-3.55%
-1.32%
-1.6%
18%
-7.94%
-4.35%

Dear colleague, could you please provide cytotoxicity at 70.5 h for the molecules listed below?
1. CSc1cccc(NC(=O)Nc2c(O)oc3ccccc3c2=O)c1
2. CC1CN(C)c2ccccc2CN1C(=O)c1cscn1 (centres undefined)
3. CCC(CO)n1cnc2scc(C)c2c1=O (centres undefined)
4. COCC(=O)NC(C)Cc1cccc(Br)c1 (centres undefined)
5. Cc1noc(C2CCCN(C(=O)c3ccc(Br)cc3F)C2)n1 (centres undefined)

-11.5%
-5.75%
-22.7%
33.7%
-7.35%
